# Measured target: KRAS G12V (Homo sapiens (Human), UniProt P01116+P62937, G12V)
# Sequence (P01116-2 other isoform, or with tags, fused parts or gaps G12V): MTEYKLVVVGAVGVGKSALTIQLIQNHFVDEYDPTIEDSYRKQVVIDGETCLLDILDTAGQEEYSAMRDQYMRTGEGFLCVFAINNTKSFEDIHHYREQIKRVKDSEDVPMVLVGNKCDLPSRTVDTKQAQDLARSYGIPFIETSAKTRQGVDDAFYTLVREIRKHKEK
# Sequence (P62937 whole entry): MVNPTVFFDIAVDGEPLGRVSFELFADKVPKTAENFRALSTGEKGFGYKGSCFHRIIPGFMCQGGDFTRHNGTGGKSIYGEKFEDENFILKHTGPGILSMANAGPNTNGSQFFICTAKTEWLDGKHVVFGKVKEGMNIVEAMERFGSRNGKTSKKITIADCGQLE
# Assay remarks: Ras-Raf (BRAF RBD) disruption / FRET / MOA assay, KRAS G12V
# Format: biochemical
# Experimental conditions: read-out: IC50* KRAS G12V FRET data
pIC50: −log10 of the molar value.
Assay metric: pIC50

The compound listed as CCn1c(-c2cccnc2[C@H](C)OC)c2c3cc(ccc31)-c1cccc(c1)C[C@H](NC(=O)[C@@H](COC1CN(C(=O)C#CC(C)(C)N3CCC3)C1)C(C)C)C(=O)N1CCC[C@H](N1)C(=O)OCC(C)(C)C2 (atropisomer, axis not shown) has a reported pIC50 of 5.00 to 6.00

Now consider the entry below.
# compound CCn1c(-c2cccnc2[C@H](C)OC)c2c3cc(ccc31)-c1cc(cc(C(F)F)c1)C[C@H](NC(=O)C(COC1CN(C(=O)C#CC(C)(C)N(C)C)C1)C(C)C)C(=O)N1CCC[C@H](N1)C(=O)OCC(C)(C)C2 (mixture of isomers) ; its pIC50 = < 5.00

----------
# Measured target: NRAS WT (Homo sapiens (Human), UniProt P01111+P62937)
# Sequence (P01111 whole entry, one chain of several): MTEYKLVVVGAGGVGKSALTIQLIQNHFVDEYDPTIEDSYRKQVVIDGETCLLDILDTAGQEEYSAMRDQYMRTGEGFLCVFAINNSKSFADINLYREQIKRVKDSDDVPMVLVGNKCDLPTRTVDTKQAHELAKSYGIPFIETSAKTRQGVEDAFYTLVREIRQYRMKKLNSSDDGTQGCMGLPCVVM
# Assay remarks: Ras-Raf (BRAF RBD) disruption / FRET / MOA assay, NRAS WT
# Assay type: biochemical
# Experimental conditions: read-out: IC50* NRAS WT FRET data
Assay metric: IC50

Record excerpt, results attached:
The measured IC50 associated with C=CC(=O)N1CCC(F)(C(=O)N(C)[C@H](C(=O)N[C@H]2C[C@H]3CN(CCO3)c3ccc4c(c3)c(c(-c3cccnc3[C@H](C)OC)n4CC)CC(C)(C)COC(=O)[C@@H]3CCCN(N3)C2=O)C(C)C)CC1 (atropisomer, axis not shown) reads 100 to 1000 nM

response.value for C=CC(=O)N1CC[C@H](C(=O)N(C)[C@H](C(=O)NC2C[C@@H]3CN(CCO3)c3ccc4c(c3)c(c(-c3cccnc3[C@H](C)OC)n4CC)CC(C)(C)COC(=O)[C@@H]3CC(Br)CN(N3)C2=O)C(C)C)C1 (stereo partly drawn) (field: IC50) = > 10000 nM

Form field IC50, entry C=CC(=O)N1CCC[C@]12CCN(C(=O)N(C)[C@H](C(=O)N[C@H]1Cc3nc(cs3)-c3ccc4c(c3)c(c(-c3cccnc3[C@H](C)OC)n4CC)CC(C)(C)COC(=O)[C@@H]3CCCN(N3)C1=O)C(C)C)C2 (atropisomer, axis not shown) : 100 to 1000 nM

Input C=CC(=O)N1CC2(CCN2C(=O)N(C)[C@H](C(=O)N[C@H]2Cc3nc(cs3)-c3ccc4c(c3)c(c(-c3cccnc3[C@H](C)OC)n4CC)CC(C)(C)COC(=O)[C@@H]3CCCN(N3)C2=O)C(C)C)C1 (atropisomer, axis not shown) . Output IC50: 10 to 100 nM

New cases:
For "C=CC(=O)N1CC[C@H](C(=O)N(C)[C@H](C(=O)N[C@H]2C[C@H]3CN(CCO3)c3ccc4c(c3)c(c(-c3cccnc3COC)n4CC)CC(C)(C)COC(=O)[C@@H]3CCCN(N3)C2=O)C(C)C)C1" the molecule record lists IC50 as > 10000 nM

Measured IC50, C=CC(=O)N1CC[C@]2(C1)OCN([C@H](C(=O)N[C@H]1Cc3cc(cc(C(F)F)c3)-c3ccc4c(c3)c(c(-c3cccnc3[C@H](C)OC)n4CC)CC(C)(C)COC(=O)[C@@H]3CCCN(N3)C1=O)C(C)C)C2=O (atropisomer, axis not shown) : 100 to 1000 nM

# molecule "C=CC(=O)N1CC[C@H](C(=O)N(C)[C@H](C(=O)N[C@H]2Cc3cc(O)cc(c3)-c3ccc4c(c3)c(c(-c3cncs3)n4CC)CC(C)(C)COC(=O)[C@@H]3CCCN(N3)C2=O)C(C)C)C1" ; its IC50 = > 10000 nM

Kindly note the recorded IC50 for C=CC(=O)N(C)[C@@H]1CCN(C(=O)N(C)[C@H](C(=O)N[C@H]2Cc3nc(cs3)-c3ccc4c(c3)c(c(-c3cccnc3[C@H](C)OC)n4CC)CC(C)(C)COC(=O)[C@@H]3CCCN(N3)C2=O)C(C)C)C1 (atropisomer, axis not shown) , which is 100 to 1000 nM
